The reported measurements were obtained from patent US20230083243A1.

Biological target: T1, human Protein S (human, UniProt P07225 42-676)
T1 construct: also called ProS; ProS1
T1 sequence: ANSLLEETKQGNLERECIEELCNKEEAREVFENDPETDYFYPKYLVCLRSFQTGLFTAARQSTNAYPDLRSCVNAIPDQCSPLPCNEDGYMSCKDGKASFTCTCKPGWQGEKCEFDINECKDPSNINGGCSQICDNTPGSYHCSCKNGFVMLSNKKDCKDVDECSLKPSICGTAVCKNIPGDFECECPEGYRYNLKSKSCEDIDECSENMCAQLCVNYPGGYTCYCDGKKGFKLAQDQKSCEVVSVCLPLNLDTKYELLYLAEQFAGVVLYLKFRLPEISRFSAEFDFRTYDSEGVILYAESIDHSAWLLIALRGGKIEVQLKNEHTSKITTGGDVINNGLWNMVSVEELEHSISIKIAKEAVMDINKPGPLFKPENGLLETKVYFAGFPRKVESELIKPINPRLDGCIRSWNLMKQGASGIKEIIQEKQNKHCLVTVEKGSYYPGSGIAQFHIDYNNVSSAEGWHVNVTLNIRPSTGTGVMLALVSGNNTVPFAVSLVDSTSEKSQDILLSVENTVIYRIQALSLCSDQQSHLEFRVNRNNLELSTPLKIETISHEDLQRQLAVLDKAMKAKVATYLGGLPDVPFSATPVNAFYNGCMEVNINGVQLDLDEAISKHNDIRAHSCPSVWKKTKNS
Assay: SPR Biacore X100; antibody captured by anti-human IgG (Fc); Protein S 2-128 nM; 5 mM CaCl2; 1:1 fit
pKd: −log10 of the molar value.
property-measured: pKd

1. Antibody 3 (antibody, V domains shown, Same variable regions as Antibody 15) VH: EVQLVESGGGLVQPGRSLRLSCAASGFTFDDYAMHWVRQAPGKGLEWVSGITWNSGNIGYADSVKGRFTISRDNAKNSLYLHMNSLRIEDTAFYYCAKGRAVSDTFDIWGQGTMVTVSS VL: SYELNQPPSVSVSPGQTASITCSGDKLGDKYASWYQQKPGQSPVVAIYQNSKRPSGIPERFSASNSGNTATLTISGTQALDEADYYCQAWDSSTWVFGGGTKLTVL ... 8.65
2. Antibody 4 (antibody, V domains shown, Same variable regions as Antibody 16) VH: QVQLVESGGGVVQPGRSLRLSCAASGFTFSTYGFHWVRQPPGKGLEWVAVIYYDGINKYYADSVKGRFTISRDNSKNTLFLQMNSLRAEDTAVYYCAESDLDYWGQGTLVTVSS VL: EIVLTQSPATLSLSPGERATLSCRASQSVSIYLAWYQQKPGQAPRLLIYDASNRATGIPARFSGSGSGTDFTLTISSLEPEDFAVYYCQQRSNWPLTFGPGTKVDIK ... 8.38
3. Antibody 8 (antibody, V domains shown, Same variable regions as Antibody 20) VH: QVQLQESGPGLVKPSETLSLTCAVSGYSISSGYYWGWIRQPPGKGLDWIGSIYYSGSTYYNPSLKSRVTISVDTSKNQISLKLSSVTAADTAVYYCATTYSDIVTGYYNDAFDIWGQGTMVTVSS VL: EIVMTQSPATLSVSPGERATLSCRASQRINSNLAWYQQKPGQAPRLLIYGASTRATGIPARFSGSGSGTEFTLTISSLQSEDFAAYYCQQYDNWPLTFGGGTKVEIK ... 8.20
4. Antibody 11 (antibody, V domains shown, Same variable regions as Antibody 23) VH: QVQLVQSGAEVKKPGASVKVSCKSSGHTFTGYYMHWVRQAPGQGLEWMGWINPNSGDTNYAQKFQGRVTMTRDTSISTAYMEMSRLRSDDTAVYYCARDSQILWFGELGYWGQGTLVTVSS VL: QAVVTQESALTTSPGETVTLTCRSSTGAVTASNYANWVQEKPDHLFTGLIGSTNNRAPGVPARFSGSLIGDKAALTITGAQTEDEAIYFCALWYSDHFVFGGGTKLTVL ... 8.02
5. Antibody 12 (antibody, V domains shown, Same variable regions as Antibody 24) VH: QVQLQESGPGLVKPSETLSLTCGVSGGSISSTNWWSWVRQPPGKGLEWIGEIYQTGSTDYDPSLKSRVTISIDKSKNQFSLKLYSVTAADTAVYYCARRFGELDYWGQGTLVTVSS VL: EIVMTQSPATLSVSPGERATLSCRASQSVTSNLAWYQQKPGQAPRLLIYDASTRATGIPARFSGSGSGTEFTLTISSLQSEDFAIYYCQQYNNWPTFGQGTRLEIK ... 7.84
6. Antibody 1 (antibody, V domains shown, Same variable regions as Antibody 13) VH: QVQLVQSGAEVKKPGSSVKVSCKVSGGTFSSYSISWVRQAPGQGLEWMGGIIPIFGTTNYAQKFQGRVTITADESTSTAYMDLSSLKSEDTAMYYCEGGRVGADFDYWGQGTLVTVSS VL: SSDLTQGPAVSVALGQTVRITCQGDSLRNYYASWYQQKPGQAPVPVIYGKNDRPSGIPDRFSGSISGNTASLTITGAQAEDEAHYYCNSRDSSGNHVVFGGGTKLTVL ... 8.88
7. Antibody 2 (antibody, V domains shown, Same variable regions as Antibody 14) VH: QVQLQESGPGLVKPSQTLSLTCTVSGGSITSDGYHWSWIRQYPGKGLDWIGYIYYTGNTYYNPSLKSRVTISVGTSQNQFSLKLISVTAADTAVYYCARRLSTGPYFDYWGQGTLVTVSS VL: QSALTQPASVSGSPGQSITISCTGTSSDVGGYEFVSWYQHHPGKAPKLMIYDVSSRPSGVSNRFSGSKSGNTASLTISGLQAEDEADYYCSSYTRSSTVVFGGGARLTVL ... 8.79
